Hi there, I'd appreciate the recorded protein stability index for every entry that follows.
B1: P2RY14 (parent)
chain: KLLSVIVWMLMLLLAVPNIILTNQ

variants of: B1; experiment: protein stability index of a GFP-peptide fusion (GPS, HEK-293T) (PSI 1-6); higher = more stable; conditions: c terminus: a fixed tail appended;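 also: lentivirally expressed fusions sorted by FACS into six bins by GFP to DsRed ratio, PSI derived from sequencing read proportions per bin multiplied by bin number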
Form rule: numeric answer, no unit written next to it.

Qu. So what does the record say about protein stability index for `L12C` ?
Ans. 3.75

Qu. So what does the record say about protein stability index for `N23T` ?
Ans. 2.97

Qu. So what does the record say about protein stability index for `P17V` ?
Ans. 1.23

Qu. So what does the record say about protein stability index for `N23W` ?
Ans. 2.57

Qu. So what does the record say about protein stability index for `K1D` ?
Ans. 1.48

Qu. So what does the record say about protein stability index for `M11V` ?
Ans. 3.42

Qu. So what does the record say about protein stability index for `V7A` ?
Ans. 2.07

meta.source: the supplement of paper PMC10567573
